Below, each of the compounds is paired with its reported growth value.
# Tested on: ACHN renal
# PROCEDURE SUMMARY: NCI-60 one-dose screen, 48 h (100 = growth as untreated, 0 = no growth, -100 = all killed)
# RUN PARAMETERS: 10 µM unless noted
This is part of a sample that, as a whole, favours compounds with a hit. Of some 83,000 tested, about 20% had one in any assay.
Write down the numeric answer in % and omit the unit.

Some solved entries appear below for comparison.
COMPOUND: O=[N+]([O-])c1cnc(Sc2ccncn2)c([N+](=O)[O-])c1
growth / %: -29.6
--
COMPOUND: CCCn1cnc2c1c(=O)n(CCCCC(C)=O)c(=O)n2C
growth / %: 101
--
COMPOUND: C=CC1=C(C(=O)O)N2C(=O)[C@@H](NC(=O)/C(=N\O)c3csc(N)n3)[C@H]2SC1 (stereo in doubt)
growth / %: 96.7
--
COMPOUND: CCN(CC)CCOc1ccccc1-n1c(C)ccc1-c1ccccc1
growth / %: 105
--
COMPOUND: Cc1nn(-c2ccccc2)c2c1oc(=O)c1cc(Cl)ccc12
growth / %: 101
--
COMPOUND: O=C(O)c1ccc(NC(=O)c2ccc(Nc3ccnc(C(F)(F)F)c3)cc2)cc1
growth / %: 98.9
--
COMPOUND: Cc1ccccc1-c1cc(Cc2ccccc2O)c(=O)[nH]n1
growth / %: 94.9

// fetch ACHN renal growth for CC(=O)c1nc2ccccc2n1CCn1cc(CC(N)C(=O)O)c2ccccc21 (stereo not drawn)
96.9

----------
# System: M14 melanoma
# PROCEDURE SUMMARY: NCI-60 one-dose screen, 48 h (100 = growth as untreated, 0 = no growth, -100 = all killed)
# RUN PARAMETERS: 10 µM unless noted
This is part of a sample that, as a whole, favours compounds with a hit. Of some 83,000 tested, about 20% had one in any assay.
# label = Met if growth < 70% else Not met

Determine if O=Nc1ccc(O)c(=O)cc1 shows growth strictly lower than 70%.
Met

Determine if CN(C)c1nc(-c2ccco2)n2nc(-c3ccco3)cc2n1 shows growth strictly lower than 70%.
Not met

Determine if O=C1/C(=C/c2ccc([N+](=O)[O-])s2)Oc2ccc(Br)cc21 shows growth strictly lower than 70%.
Met

Determine if CCC(CCC(C)C1CCC2C3CC=C4CC(O)CCC4(C)C3CCC12C)C(C)C (stereo not drawn) (tested in a mixture with another compound) shows growth strictly lower than 70%.
Not met

Determine if Clc1ccc(CCC(Cn2ccnc2)Sc2c(Cl)cccc2Cl)cc1 (stereo not drawn) shows growth strictly lower than 70%.
Met

Determine if Cc1cc2cn3c4cccnc4[nH]c(=O)c3c2cc1C shows growth strictly lower than 70%.
Met

Determine if NC(=O)N/N=C/c1ccc(Br)o1 shows growth strictly lower than 70%.
Not met

Determine if CCCCCCOc1ccc(/C=N/NC(N)=S)cc1 shows growth strictly lower than 70%.
Met

Determine if N=C(N)/N=C(\CCc1nc2ccccc2[nH]1)c1nc2ccccc2[nH]1 shows growth strictly lower than 70%.
Not met

Determine if COc1cc(/C=C2\CCC/C(=C\c3ccc(OCC4CO4)c(OC)c3)C2=O)ccc1OCC1CO1 (stereo not drawn) shows growth strictly lower than 70%.
Met

Determine if O=C1Cc2cc(CCn3cncn3)c(Cl)cc2N1 shows growth strictly lower than 70%.
Met
